# TESTED_ON: CDK2/CyclinE1 (Homo sapiens (Human))
# METHOD_NOTES: CDK2/CyclinE1 kinase inhibitory activity (Caliper mobility shift)
# Assay type: biochemical
# ASSAY_CONDITIONS: read-out: CDK2/Cyclin El IC50
MEASUREMENT_NAME: IC50

1. C=Cc1cnc(Nc2ccc(S(N)(=O)=O)cc2)nc1OC1CCCC1O (single isomer, unassigned) [Example 155b] : < 10 nM
2. O=S(=O)(NC1CCOCC1)c1ccc(Nc2ncc(Cl)c(O[C@@H]3CCC[C@@H]3O)n2)cc1 (single isomer, unassigned) [Example 130a] : < 10 nM
3. [2H]C([2H])([2H])NS(=O)(=O)c1ccc(Nc2ncc(C)c(OC3CCCC3O)n2)cc1 (single isomer, unassigned) [Example 148a] : < 10 nM
4. CC1(O)CCCC1Oc1nc(NC2CCN(S(=O)(=O)CC3CC3)CC2)ncc1C#N (single isomer, unassigned) [Example 38a] : < 10 nM
5. Cc1cnc(Nc2ccc(S(N)(=O)=O)cc2)nc1O[C@@H]1CCC[C@@H]1O (single isomer, unassigned) [Example 132a] : < 10 nM
6. N#Cc1cnc(Nc2ccc(S(N)(=O)=O)cc2)nc1-c1cccc(O)c1 : < 10 nM
7. C[C@]1(O)CCC[C@H]1Oc1nc(NC2CCN(S(C)(=O)=O)CC2)ncc1C#N (relative stereo) [Example 3a] : 10 to 100 nM
8. NS(=O)(=O)c1ccc(Nc2ncc(F)c(N3CCCCC3)n2)cc1 : 10 to 100 nM
9. N#Cc1cnc(Nc2ccc(S(N)(=O)=O)cc2)nc1N1CCC(O)CC1 : 10 to 100 nM
10. Cn1cc(S(=O)(=O)N2CCC(Nc3ncc(C#N)c(O[C@@H]4CCC(F)(F)C[C@]4(C)O)n3)CC2)cn1 (relative stereo) [Example 7a] : < 10 nM
11. C[C@]1(O)CC(F)(F)C[C@H]1Oc1nc(NC2CCN(S(C)(=O)=O)CC2)ncc1C#N (relative stereo) [Example 4b] : 10 to 100 nM
12. [2H]C([2H])([2H])NS(=O)(=O)c1ccc(Nc2ncc(C(=C)F)c(O[C@@H]3CCC[C@@H]3O)n2)cc1 (single isomer, unassigned) [Example 135a] : < 10 nM
13. Cn1cc(S(=O)(=O)N2CCC(Nc3ncc(C#N)c(OCC4(C)CCC4)n3)CC2)cn1 : < 10 nM
14. CC1(O)CCCC1Oc1nc(Nc2ccc(S(N)(=O)=O)cc2)ncc1C#N (single isomer, unassigned) [Example 23a] : < 10 nM

* * *

IC50: recorded values
# TESTED_ON: CDK6/CyclinD1 (Homo sapiens (Human))
# Sequence (Q00534 whole entry): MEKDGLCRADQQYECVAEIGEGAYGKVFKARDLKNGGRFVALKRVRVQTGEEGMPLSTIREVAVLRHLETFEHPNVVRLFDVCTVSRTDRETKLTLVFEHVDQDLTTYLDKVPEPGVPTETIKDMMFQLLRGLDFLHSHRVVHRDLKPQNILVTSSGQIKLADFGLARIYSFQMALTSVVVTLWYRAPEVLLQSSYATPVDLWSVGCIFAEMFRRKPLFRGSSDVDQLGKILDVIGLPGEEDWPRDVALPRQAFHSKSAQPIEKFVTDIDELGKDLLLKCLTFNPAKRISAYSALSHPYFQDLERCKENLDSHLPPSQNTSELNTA
# Sequence (P24385 whole entry partner): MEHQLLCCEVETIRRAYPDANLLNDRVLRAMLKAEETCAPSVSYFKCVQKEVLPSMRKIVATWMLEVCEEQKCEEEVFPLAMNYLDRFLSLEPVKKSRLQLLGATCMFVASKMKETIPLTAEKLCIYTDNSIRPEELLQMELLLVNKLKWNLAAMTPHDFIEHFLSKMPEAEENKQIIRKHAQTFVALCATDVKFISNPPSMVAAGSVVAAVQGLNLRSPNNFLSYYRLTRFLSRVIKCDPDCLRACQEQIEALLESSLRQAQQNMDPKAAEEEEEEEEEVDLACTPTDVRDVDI
# METHOD_NOTES: CDK6/CyclinD1 kinase inhibitory activity (Caliper mobility shift)
# ASSAY_CONDITIONS: read-out: CDK6/Cyclin D1 IC50
MEASUREMENT_NAME: IC50

1. CNc1cccc(-c2nc(Nc3ccc(S(N)(=O)=O)cc3)ncc2C#N)c1 : ≥ 1000 nM
2. N#Cc1cnc(Nc2ccc(S(N)(=O)=O)cc2)nc1OCC1CCCC1 : ≥ 1000 nM
3. CNS(=O)(=O)c1ccc(Nc2ncc(C#N)c(OC3CCC[C@H]3O)n2)cc1 (mixture of isomers) : 100 to 1000 nM
4. N#Cc1cnc(Nc2ccc(S(N)(=O)=O)cc2)nc1-c1cccc(O)c1 : 10 to 100 nM
5. Cn1cc(S(=O)(=O)N2CCC(Nc3ncc(C#N)c(OC4CC5(CCC5)C4)n3)CC2)cn1 : 10 to 100 nM
6. C[C@]1(O)COC[C@H]1Oc1nc(NC2CCN(S(C)(=O)=O)CC2)ncc1C(F)(F)F (relative stereo) [Example 104b] : 100 to 1000 nM
7. N#Cc1cnc(Nc2ccc(S(N)(=O)=O)cc2)nc1OC1CCCCCC1O (single isomer, unassigned) [Example 22a] : 10 to 100 nM
8. CC(C)NS(=O)(=O)c1ccc(Nc2ncc(C(F)(F)F)c(OC3CCCC3O)n2)cc1 (single isomer, unassigned) [Example 106a] : 100 to 1000 nM
9. C[C@]1(O)CC(F)(F)C[C@H]1Oc1nc(NC2CCN(S(C)(=O)=O)CC2)ncc1C#N (relative stereo) [Example 4a] : < 10 nM
10. [2H]C([2H])([2H])NS(=O)(=O)c1ccc(Nc2ncc(C(F)(F)F)c(OC3CCCC3)n2)cc1 : 100 to 1000 nM
11. CNS(=O)(=O)c1ccc(Nc2ncc(C(F)(F)F)c(OC3CCOCC3O)n2)cc1 (single isomer, unassigned) [Example 116a] : 100 to 1000 nM
12. C[C@]1(O)CCC[C@H]1Oc1nc(NC2CCN(S(C)(=O)=O)CC2)ncc1C#N (relative stereo) [Example 5a] : 10 to 100 nM
13. [2H]C([2H])([2H])NS(=O)(=O)c1ccc(Nc2ncc(CC)c(OC3COCC3(C)O)n2)cc1 (single isomer, unassigned) [Example 150a] : 100 to 1000 nM
14. CC1(O)CCCC1Oc1nc(NC2CCN(S(=O)(=O)C(F)(F)F)CC2)ncc1C#N (single isomer, unassigned) [Example 42a] : 10 to 100 nM
15. CS(=O)(=O)N1CCC(Nc2ncc(Br)c(OC3CCCCCC3O)n2)CC1 (single isomer, unassigned) [Example 145b] : 10 to 100 nM
16. Cn1cnc(S(=O)(=O)N2CCC(Nc3ncc(C#N)c(OC4CCCC4(C)O)n3)CC2)c1 (single isomer, unassigned) [Example 50a] : < 10 nM
17. CC1(O)CCCC1Oc1nc(Nc2ccc(S(N)(=O)=O)cc2)ncc1C#N (single isomer, unassigned) [Example 23a] : 10 to 100 nM
18. N#Cc1cnc(Nc2ccc(S(N)(=O)=O)cc2)nc1N1CCCC(c2ccccc2)C1 (single isomer, unassigned) : 100 to 1000 nM
19. Cc1cccc(-c2nc(Nc3ccc(S(N)(=O)=O)cc3)ncc2C#N)c1 : 100 to 1000 nM
20. [2H]C([2H])([2H])NS(=O)(=O)c1ccc(Nc2ncc(C(F)(F)F)c(OC3CCOCCC3O)n2)cc1 (single isomer, unassigned) [Example 102d] : 100 to 1000 nM
21. CN1CCC(NS(=O)(=O)c2ccc(Nc3ncc(Cl)c(OC4CCCC4O)n3)cc2)CC1 (single isomer, unassigned) [Example 139a] : 10 to 100 nM
22. Cc1cnc(Nc2ccc(S(=O)(=O)NC3CC3)cc2)nc1OC1CCCC1O (single isomer, unassigned) [Example 146a] : 100 to 1000 nM
23. Cn1cc(S(=O)(=O)N2CCC(Nc3ncc(C#N)c(OC4CCCC4(C)O)n3)CC2)cn1 (single isomer, unassigned) [Example 48a] : < 10 nM
24. CC1(C)CCCN(c2nc(Nc3ccc(S(N)(=O)=O)cc3)ncc2C#N)C1 : 100 to 1000 nM
25. CC(C)CS(=O)(=O)N1CCC(Nc2ncc(C#N)c(OC3CCCC3(C)O)n2)CC1 (single isomer, unassigned) [Example 39a] : < 10 nM
26. CC1(O)CC(F)(F)CCC1Oc1nc(NC2CCN(S(C)(=O)=O)CC2)ncc1C#N (single isomer, unassigned) [Example 47b] : 100 to 1000 nM
27. CNS(=O)(=O)c1ccc(Nc2ncc(C#N)c(N3CCCCC3)n2)cc1 : 100 to 1000 nM
28. C[C@H]1CCCN(c2nc(Nc3ccc(S(N)(=O)=O)cc3)ncc2C#N)C1 : 100 to 1000 nM

* * *

# TESTED_ON: CDK1/CyclinB (Homo sapiens (Human))
# Sequence (P06493 whole entry): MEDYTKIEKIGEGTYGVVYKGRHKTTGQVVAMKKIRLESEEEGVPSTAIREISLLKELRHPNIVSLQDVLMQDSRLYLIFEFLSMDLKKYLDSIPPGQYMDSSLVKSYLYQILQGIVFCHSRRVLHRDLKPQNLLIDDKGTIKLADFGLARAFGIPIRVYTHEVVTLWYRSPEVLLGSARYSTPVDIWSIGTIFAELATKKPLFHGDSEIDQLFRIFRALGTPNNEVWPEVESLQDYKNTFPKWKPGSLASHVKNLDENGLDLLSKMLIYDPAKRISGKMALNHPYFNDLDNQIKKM
# Sequence (P14635 whole entry partner): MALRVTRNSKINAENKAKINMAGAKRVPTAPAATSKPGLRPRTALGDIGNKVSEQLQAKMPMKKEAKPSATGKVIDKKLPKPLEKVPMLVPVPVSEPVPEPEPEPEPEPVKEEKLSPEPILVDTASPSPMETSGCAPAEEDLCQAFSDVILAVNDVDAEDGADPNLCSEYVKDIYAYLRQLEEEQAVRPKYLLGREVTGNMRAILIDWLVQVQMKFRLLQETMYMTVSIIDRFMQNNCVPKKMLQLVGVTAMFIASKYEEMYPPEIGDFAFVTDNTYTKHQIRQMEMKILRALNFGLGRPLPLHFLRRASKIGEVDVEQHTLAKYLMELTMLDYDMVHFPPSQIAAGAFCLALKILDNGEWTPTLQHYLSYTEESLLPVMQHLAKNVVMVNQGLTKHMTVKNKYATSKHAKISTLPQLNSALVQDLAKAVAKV
# METHOD_NOTES: CDK1/CyclinB kinase inhibitory activity (Caliper mobility shift)
# ASSAY_CONDITIONS: read-out: CDK1/Cyclin B1 IC50
MEASUREMENT_NAME: IC50

1. CC(C)NS(=O)(=O)c1ccc(Nc2ncc(C#N)c(OC3CCC[C@H]3O)n2)cc1 (mixture of isomers) : 10 to 100 nM
2. N#Cc1cnc(Nc2ccc(S(N)(=O)=O)cc2)nc1N1CCCCCC1 : 10 to 100 nM
3. [2H]C([2H])([2H])NS(=O)(=O)c1ccc(Nc2ncc(CC)c(OC3COCCC3(C)O)n2)cc1 (single isomer, unassigned) [Example 153b] : ≥ 1000 nM
4. [2H]C([2H])([2H])NS(=O)(=O)c1ccc(Nc2ncc(C#N)c(OC3CCCOCC3)n2)cc1 (single isomer, unassigned) [Example 33b] : 100 to 1000 nM
5. CNS(=O)(=O)c1ccc(Nc2ncc(Br)c(OC3CCCC3O)n2)cc1 (single isomer, unassigned) [Example 142b] : 10 to 100 nM
6. [2H]C([2H])([2H])NS(=O)(=O)c1ccc(Nc2ncc(C(F)(F)F)c(O[C@H]3CCOC[C@H]3O)n2)cc1 (single isomer, unassigned) [Example 100b] : 100 to 1000 nM
